The reported measurements were obtained from the supplement of paper PMC7877785.

Please go through the items and note down their self-splicing fitness (ln).
- protocol_summary: self-splicing fitness, log relative to wild type (ln ratio); higher = more splicing; Tetrahymena group I intron in knt gene, E. coli kanamycin selection, DiMSum; sequences stand for … in CUCUCU…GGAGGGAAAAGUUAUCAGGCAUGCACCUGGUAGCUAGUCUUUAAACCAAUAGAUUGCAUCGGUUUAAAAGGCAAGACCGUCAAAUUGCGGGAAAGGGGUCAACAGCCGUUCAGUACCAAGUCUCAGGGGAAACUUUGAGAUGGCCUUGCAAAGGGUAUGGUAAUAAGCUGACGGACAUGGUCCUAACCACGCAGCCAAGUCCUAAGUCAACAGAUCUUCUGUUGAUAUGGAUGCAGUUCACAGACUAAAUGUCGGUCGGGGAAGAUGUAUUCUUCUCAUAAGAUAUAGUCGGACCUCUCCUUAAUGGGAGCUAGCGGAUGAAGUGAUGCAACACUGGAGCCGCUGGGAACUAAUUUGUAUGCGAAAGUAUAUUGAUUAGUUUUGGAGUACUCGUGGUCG;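 also: selection with 25 µg/mL kanamycin versus none on LB agar overnight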
- setup_conditions: 37 °C
Give bare numbers.

{"residues": "UAAAAGCAAUAUUACGCACA", "observed_value": 0.516}
{"residues": "CCAGAGCAAUAUUACGAGCA", "observed_value": -2.32}
{"residues": "UUUUAGCAAUAUUACGAUUA", "observed_value": 0.0391}
{"residues": "CCCCAGCAAUAUUACGAUUU", "observed_value": -3.51}
{"residues": "CAGUAGCAAUAUUACGAGCG", "observed_value": 0.263}

Give me self-splicing fitness (ln) for each of these sequences, listed below.
1. GUUGAGCAAUAUUACGGGGC
2. AAUUAGCAAUAUUACGGGAU
3. UAAUAGCAAUAUUACGCGGA
4. GUCUAGCAAUAUUACGUAAC
5. CCCUAGCAAUAUUACGGACA
6. UGUUAGCAAUAUUACGGGAG

1: -2.84; 2: -1.37; 3: -1.82; 4: -0.195; 5: -2.62; 6: -3.42

====

- protocol_summary: self-splicing fitness, log relative to wild type (ln ratio); higher = more splicing; Tetrahymena group I intron in knt gene, E. coli kanamycin selection, DiMSum; sequences stand for … in CUCUCU…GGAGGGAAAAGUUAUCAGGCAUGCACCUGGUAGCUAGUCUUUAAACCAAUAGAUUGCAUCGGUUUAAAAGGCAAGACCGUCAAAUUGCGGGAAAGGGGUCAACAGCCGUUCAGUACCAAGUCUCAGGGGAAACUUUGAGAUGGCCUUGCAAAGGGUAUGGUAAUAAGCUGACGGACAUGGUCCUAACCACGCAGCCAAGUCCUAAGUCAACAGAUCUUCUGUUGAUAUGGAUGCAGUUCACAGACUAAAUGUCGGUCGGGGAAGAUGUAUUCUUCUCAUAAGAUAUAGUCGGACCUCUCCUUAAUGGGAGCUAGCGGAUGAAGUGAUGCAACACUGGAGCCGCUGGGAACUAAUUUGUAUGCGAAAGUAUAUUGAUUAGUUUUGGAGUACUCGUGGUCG
- setup_conditions: 37 °C
Param threshold (-1) applies to self-splicing fitness (ln); output Met when value >= threshold, Not met when value < threshold.

Some solved entries appear below for comparison.
{"residues": "GGUCAGCAAUAUUACGUCGA", "label_value": "Met"}
{"residues": "UAAUAGCAAUAUUACGUAUG", "label_value": "Met"}
{"residues": "ACUGAGCAAUAUUACGUUCA", "label_value": "Not met"}
{"residues": "AUGCAGCAAUAUUACGUAGG", "label_value": "Not met"}
{"residues": "ACCAAGCAAUAUUACGGUUG", "label_value": "Not met"}

Determine whether this sequence has self-splicing fitness (ln) no lower than -1: UCCUAGCAAUAUUACGCAAC
Not met

Determine whether this sequence has self-splicing fitness (ln) no lower than -1: CCUAAGCAAUAUUACGUUUC
Not met

Determine whether this sequence has self-splicing fitness (ln) no lower than -1: UAUCAGCAAUAUUACGUCGA
Met

Determine whether this sequence has self-splicing fitness (ln) no lower than -1: CUGAAGCAAUAUUACGCCUA
Not met

Determine whether this sequence has self-splicing fitness (ln) no lower than -1: CCCGAGCAAUAUUACGCUUU
Not met

====

- protocol_summary: self-splicing fitness, log relative to wild type (ln ratio); higher = more splicing; Tetrahymena group I intron in knt gene, E. coli kanamycin selection, DiMSum; sequences stand for … in CUCUCU…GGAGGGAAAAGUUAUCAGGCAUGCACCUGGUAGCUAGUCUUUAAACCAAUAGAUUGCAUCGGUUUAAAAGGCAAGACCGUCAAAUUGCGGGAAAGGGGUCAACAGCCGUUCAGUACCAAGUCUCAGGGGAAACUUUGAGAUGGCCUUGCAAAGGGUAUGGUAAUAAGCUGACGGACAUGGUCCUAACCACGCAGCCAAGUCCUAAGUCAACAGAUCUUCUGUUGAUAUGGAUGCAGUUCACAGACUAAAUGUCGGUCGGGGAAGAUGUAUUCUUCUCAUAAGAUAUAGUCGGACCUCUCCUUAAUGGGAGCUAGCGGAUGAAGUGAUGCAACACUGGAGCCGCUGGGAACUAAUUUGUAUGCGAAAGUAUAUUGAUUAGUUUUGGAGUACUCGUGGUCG
- setup_conditions: 30 °C
# class assignment by measured self-splicing fitness (ln): b0 = under -3, b1 = from -3 up to -2, b2 = -2 and over

{"residues": "GAGCAGCAAUAUUACGCUUG", "label_value": "b1"}
{"residues": "ACUUAGCAAUAUUACGGCUC", "label_value": "b2"}
{"residues": "AGAUAGCAAUAUUACGGGGA", "label_value": "b0"}
{"residues": "UUGAAGCAAUAUUACGCAUC", "label_value": "b0"}
{"residues": "UGACAGCAAUAUUACGUGAA", "label_value": "b2"}
{"residues": "UGCUAGCAAUAUUACGUGAA", "label_value": "b1"}
{"residues": "ACGAAGCAAUAUUACGUUCU", "label_value": "b2"}
{"residues": "ACCAAGCAAUAUUACGCGAG", "label_value": "b1"}

Record GACCAGCAAUAUUACGAAUG — which class?
b2

Record CCGCAGCAAUAUUACGUAGG — which class?
b1

Record UAACAGCAAUAUUACGCAGA — which class?
b1

Record CAACAGCAAUAUUACGUUUU — which class?
b0

Record AAAGAGCAAUAUUACGUGAA — which class?
b0

====

- protocol_summary: self-splicing fitness, log relative to wild type (ln ratio); higher = more splicing; Tetrahymena group I intron in knt gene, E. coli kanamycin selection, DiMSum; sequences stand for … in CUCUCU…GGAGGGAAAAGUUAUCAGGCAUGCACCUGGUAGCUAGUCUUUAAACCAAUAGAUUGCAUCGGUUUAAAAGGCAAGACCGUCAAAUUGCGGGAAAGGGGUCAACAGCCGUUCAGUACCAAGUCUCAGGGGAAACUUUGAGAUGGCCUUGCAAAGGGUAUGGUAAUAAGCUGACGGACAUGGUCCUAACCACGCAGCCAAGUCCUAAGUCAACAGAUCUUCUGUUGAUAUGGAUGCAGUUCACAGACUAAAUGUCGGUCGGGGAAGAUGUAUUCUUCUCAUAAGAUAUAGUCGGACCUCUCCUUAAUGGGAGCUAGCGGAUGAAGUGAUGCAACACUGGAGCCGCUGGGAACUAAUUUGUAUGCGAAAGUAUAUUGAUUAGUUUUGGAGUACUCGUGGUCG
- setup_conditions: 37 °C
Please go through the items and note down their self-splicing fitness (ln).

Recorded results for 3 sequences are shown here.
{"residues": "AUUUAGCAAUAUUACGUAAC", "self-splicing fitness (ln)": -2.58}
{"residues": "CAUAAGCAAUAUUACGGUGU", "self-splicing fitness (ln)": -2.38}
{"residues": "GACCAGCAAUAUUACGCGAC", "self-splicing fitness (ln)": -1.04}

Give me self-splicing fitness (ln) for each of these sequences, listed below.
1. UAAUAGCAAUAUUACGACGU
2. GUCAAGCAAUAUUACGAUUA
3. ACAGAGCAAUAUUACGUUUG
4. ACUUAGCAAUAUUACGCUCG
5. CCUGAGCAAUAUUACGGUUG
6. UACUAGCAAUAUUACGAUAA

1: -1.76; 2: -0.259; 3: -3.07; 4: -0.233; 5: -1.3; 6: -0.513

====

- protocol_summary: self-splicing fitness, log relative to wild type (ln ratio); higher = more splicing; Tetrahymena group I intron in knt gene, E. coli kanamycin selection, DiMSum; sequences stand for … in CUCUCU…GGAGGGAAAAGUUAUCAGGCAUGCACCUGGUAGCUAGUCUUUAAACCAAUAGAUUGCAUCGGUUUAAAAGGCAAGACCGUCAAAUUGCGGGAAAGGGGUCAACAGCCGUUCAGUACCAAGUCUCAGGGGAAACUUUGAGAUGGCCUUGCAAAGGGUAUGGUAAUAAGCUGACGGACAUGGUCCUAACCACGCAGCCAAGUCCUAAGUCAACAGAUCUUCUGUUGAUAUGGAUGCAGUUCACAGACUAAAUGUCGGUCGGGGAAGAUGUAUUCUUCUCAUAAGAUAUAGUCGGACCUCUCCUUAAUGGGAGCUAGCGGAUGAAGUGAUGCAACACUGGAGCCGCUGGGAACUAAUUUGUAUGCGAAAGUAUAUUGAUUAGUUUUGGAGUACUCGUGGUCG
- setup_conditions: 37 °C
reported_property: self-splicing fitness (ln)

Recorded results for 6 sequences are shown here.
{"residues": "AAAGAGCAAUAUUACGAGUC", "observed_value": -2.63}
{"residues": "GCGUAGCAAUAUUACGAGUG", "observed_value": -1.19}
{"residues": "GCAAAGCAAUAUUACGUCAU", "observed_value": -1.37}
{"residues": "ACCAAGCAAUAUUACGGUAC", "observed_value": -1.16}
{"residues": "GCCAAGCAAUAUUACGGUAA", "observed_value": 0.0284}
{"residues": "GCUUAGCAAUAUUACGCCAG", "observed_value": -1.76}

Attention now shifts to the item below.
Please give the measured self-splicing fitness (ln) for this sequence: GGUCAGCAAUAUUACGUAGU
0.693
